# tested_system: T1, human TGFβ1 (human, UniProt P01137 279-390)
# T1 construct: also called TGFβ1 homodimer
# T1 sequence (P01137 279-390 limits assumed): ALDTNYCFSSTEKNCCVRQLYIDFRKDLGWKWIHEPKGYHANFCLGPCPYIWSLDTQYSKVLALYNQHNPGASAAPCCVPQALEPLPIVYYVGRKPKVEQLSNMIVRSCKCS
# protocol_description: Biacore off-rate vs wt GC1008, 50 nM
Entries and their measured kd var/kd wt follow.
Answer with the value's number alone.

[
  {
    "binder": "Y27I (antibody, V domains shown, GC1008 IgG4 variant) VH: QVQLVQSGAEVKKPGSSVKVSCKASGITFSSNVISWVRQAPGQGLEWMGGVIPIVDIANYAQRFKGRVTITADESTSTTYMELSSLRSEDTAVYYCASTLGLVLDAMDYWGQGTLVTVSS VL: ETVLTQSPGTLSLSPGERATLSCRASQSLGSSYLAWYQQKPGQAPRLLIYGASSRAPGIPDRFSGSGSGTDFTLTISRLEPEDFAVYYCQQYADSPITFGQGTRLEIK",
    "val": 1.3
  },
  {
    "binder": "D56E (antibody, V domains shown, GC1008 IgG4 variant) VH: QVQLVQSGAEVKKPGSSVKVSCKASGYTFSSNVISWVRQAPGQGLEWMGGVIPIVEIANYAQRFKGRVTITADESTSTTYMELSSLRSEDTAVYYCASTLGLVLDAMDYWGQGTLVTVSS VL: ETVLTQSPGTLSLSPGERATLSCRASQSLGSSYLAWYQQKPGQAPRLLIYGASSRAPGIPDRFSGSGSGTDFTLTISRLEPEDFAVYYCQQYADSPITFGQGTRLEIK",
    "val": 1
  }
]

// next entry
Given V55G (antibody, V domains shown, GC1008 IgG4 variant) VH: QVQLVQSGAEVKKPGSSVKVSCKASGYTFSSNVISWVRQAPGQGLEWMGGVIPIGDIANYAQRFKGRVTITADESTSTTYMELSSLRSEDTAVYYCASTLGLVLDAMDYWGQGTLVTVSS VL: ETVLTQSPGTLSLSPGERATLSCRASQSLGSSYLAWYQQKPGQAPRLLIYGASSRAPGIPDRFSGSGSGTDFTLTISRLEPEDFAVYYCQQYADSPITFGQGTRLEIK , respond with its kd var/kd wt. 1.8
